Where do these numbers come from? They come from patent US10238743B2.

Heads up, these molecules all have pKi values measured for purified human autoBACE-2 (Homo sapiens (Human), UniProt Q9Y5Z0).
Value format note: pKi is -log10 of concentration (mol/L); just state the number.

These solved cases illustrate the format of a correct answer.
structure smiles string: CN1C(=N)N[C@]2(C)c3cc(NC(=O)c4ncc(C(F)(F)F)cc4Cl)ccc3OCC[C@@H]2S1(=O)=O
pKi: 7.44
//
structure smiles string: CN1C(=N)N[C@]2(C)c3cc(NCC4CC4)ccc3OCC[C@@H]2S1(=O)=O
pKi: 5.70
//
structure smiles string: CN1C(=N)N[C@]2(C)c3cc(NC(=O)c4ncc(Cl)cc4F)ccc3OCC[C@@H]2S1(=O)=O
pKi: 8.40
//
structure smiles string: CN1C(=N)N[C@]2(C)c3cc(NC(=O)c4ncc(Cl)cc4Cl)ccc3OCC[C@@H]2S1(=O)=O
pKi: 8.70
//
structure smiles string: COc1cnc(C(=O)Nc2ccc3c(c2)[C@@]2(C)NC(=N)N(C)S(=O)(=O)[C@H]2CCC3)c(C)n1
pKi: 7.07

Would you kindly look at the next entry?
*Q* Given the entry COc1cnc(C(=O)Nc2ccc3c(c2)[C@@]2(C)NC(=N)N(C)S(=O)(=O)[C@H]2CCC3)cn1 , report its measured pKi.
*A* 7.28

---

molecular target: UniProt Q9Y5Z0
Listed below: pKi values for each entry.
// scale note: pKi = -log10(conc_M); give the bare number

In the examples that follow, each entry is paired with its recorded pKi.
compound: CN1C(=N)N[C@]2(C)c3cc(NC(=O)c4ncc(F)cc4F)ccc3OCC[C@@H]2S1(=O)=O [Example 15]
pKi: 8.22
--
compound: CCCNc1ccc2c(c1)[C@@]1(C)NC(=N)N(C)S(=O)(=O)[C@H]1CCO2 [Example 49]
pKi: 5.70
--
compound: CN1C(=N)N[C@]2(C)c3cc(NC(=O)c4ccccn4)ccc3OCC[C@H]2S1(=O)=O [Example 2]
pKi: 6.55

*Q* Item CN1C(=N)N[C@]2(C)c3cc(NC(=O)c4ccc(C(F)(F)F)cn4)ccc3OCC[C@@H]2S1(=O)=O [Example 18] with UniProt Q9Y5Z0 - pKi?
*A* 7.10

*Q* Lab note: need pKi for CN1C(=N)N[C@]2(C)c3cc(NC(=O)c4ccc(C#N)cn4)ccc3CCC[C@@H]2S1(=O)=O [Example 36] on UniProt Q9Y5Z0, anyone have it?
*A* 7.60

*Q* Any idea what pKi came out for CN1C(=N)N[C@]2(C)c3cc(NC(=O)c4ccc(OC(F)F)cn4)ccc3CCC[C@@H]2S1(=O)=O [Example 22] on UniProt Q9Y5Z0?
*A* 7.05

*Q* I'm curious: which pKi was measured for CN1C(=N)N[C@]2(C)c3cc(NC(=O)c4ccc(OC(F)F)cn4)ccc3CCC[C@H]2S1(=O)=O [Example 38] tested on UniProt Q9Y5Z0?
*A* 6.07

*Q* Tell me reported pKi for COc1cnc2c(Nc3ccc4c(c3)[C@@]3(C)NC(=N)N(C)S(=O)(=O)[C@H]3CCC4)nccc2c1 [Example 46] , tested with UniProt Q9Y5Z0.
*A* 6.60

---

Ki tested on purified human autoBACE-2 (Homo sapiens (Human), UniProt Q9Y5Z0): recorded values
Sequence (Q9Y5Z0 63-473 limits assumed): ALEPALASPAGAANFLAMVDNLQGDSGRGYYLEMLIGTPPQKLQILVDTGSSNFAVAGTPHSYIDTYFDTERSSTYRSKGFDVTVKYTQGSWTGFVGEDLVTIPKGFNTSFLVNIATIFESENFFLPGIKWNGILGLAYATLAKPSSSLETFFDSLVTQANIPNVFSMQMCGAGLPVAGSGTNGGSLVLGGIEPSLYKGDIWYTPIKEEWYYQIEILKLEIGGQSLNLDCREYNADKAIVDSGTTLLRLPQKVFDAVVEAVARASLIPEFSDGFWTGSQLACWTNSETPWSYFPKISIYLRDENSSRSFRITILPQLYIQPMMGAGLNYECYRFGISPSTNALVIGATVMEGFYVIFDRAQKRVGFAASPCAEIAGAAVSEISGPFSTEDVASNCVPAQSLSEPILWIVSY
Could you give me the number in µM? Just the number is fine.

structure smiles string: CN1C(=N)N[C@]2(C)c3cc(NC4CCCC4)ccc3OCC[C@@H]2S1(=O)=O
Ki, µM: 0.716

*Q* What value of Ki has been recorded for this entry: Cc1cnc(C(=O)Nc2ccc3c(c2)[C@@]2(C)NC(=N)N(C)S(=O)(=O)[C@H]2CCC3)cn1
*A* 0.251

*Q* Give its Ki value. Item: CN1C(=N)N[C@]2(C)c3cc(NC(=O)c4ccc(F)cn4)ccc3CCC[C@@H]2S1(=O)=O
*A* 0.007

*Q* # query: Ki of entry Cc1cc(F)cnc1C(=O)Nc1ccc2c(c1)[C@@]1(C)NC(=N)N(C)S(=O)(=O)[C@@H]1CCO2
*A* 0.086
